Reference source for all entries: PubChem BioAssay AID1159580

assayProtocol: chemical genetic growth profiling, strain panel (AID 1159580);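 further: tested at 20 µM; growth read once vehicle control cultures reached saturation at 30 °C; 1 = growth at the plate median or of vehicle wells; lower values mean less growth of the strain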
conditionParameters: S. cerevisiae deletion strains, growth OD, locus YBR023C, strain chs3, active compounds read low
About 2,000 (36%) of roughly 5,500 compounds were called active. Another 18% or so got no clear call; they are omitted. Some of the results follow.
experimentalReadout: normalized growth
Give only the figure.

A selection of reference data follows.
INSERT INTO measurements (compound, experimentalreadout, quantitativeresult) VALUES
  ('CC(=O)O[C@]1(C)CC[C@@]23CC1C(C)(C)[C@@H]2CC[C@H]3C', 'normalized growth', 0.961),
  ('CC(=O)O[C@@H]1CC2C(C)(C)[C@H](O)CC[C@]2(C)C2CC[C@@]3(C)[C@H](c4ccoc4)OC(=O)C4OC43[C@@]21C (some centres undefined)', 'normalized growth', 1.02),
  ('CC12CCCCC1(Br)[N+](=O)N2[O-] (centres undefined)', 'normalized growth', 0.976);

Consider now this further compound.
C=NC(C(=O)NC1C(=O)N2C1SC(C)(C)C2C(=O)O)c1ccccc1 (centres undefined) has a reported normalized growth of 0.995

###

assayProtocol: chemical genetic growth profiling, strain panel (AID 1159580);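 further: tested at 20 µM; growth read once vehicle control cultures reached saturation at 30 °C; 1 = growth at the plate median or of vehicle wells; lower values mean less growth of the strain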
conditionParameters: S. cerevisiae deletion strains, growth OD, locus YER015W, strain faa2, active compounds read low
The campaign covered roughly 5,500 compounds. About 2,000 (36%) were called active. Roughly 18% stayed inconclusive and do not appear here. Some of the results follow.
# normalized growth annotations
Give only the figure.

A selection of reference data follows.
INSERT INTO results (compound, quantitativeresult) VALUES
  ('COc1ccc2c(c1)OCC(Cc1ccc(O)c(OC)c1)C2=O (configuration not stated)', 0.974),
  ('CN(C)C(=O)Oc1ccc[n+](C)c1', 0.989),
  ('COc1cc2c(cc1OC)C1(O)C(=O)c3ccc(O)c(C(=O)O)c3OC1CO2 (configuration not stated)', 0.989),
  ('CC(=O)O[C@]1(C)CC[C@@]23CC1C(C)(C)[C@@H]2CC[C@H]3C', 0.974),
  ('Clc1ccc(C(Cn2ccnc2)OCc2ccsc2Cl)c(Cl)c1 (configuration not stated)', 0.0602),
  ('C[C@@H]1CC[C@H]2C(C)(C)C3CC12CC[C@@]3(C)O (some centres not stated)', 0.86);

Consider now this further compound.
CC(=O)Oc1c2c(c3c(c1CC=C(C)C)O[C@]14C(=C[C@@H]5CC1C(C)(C)OC4(C/C=C(\C)C(=O)O)C5=O)C3=O)OC(C)(CCC=C(C)C)C=C2 (some centres not stated) has a reported normalized growth of 0.973

###

assayProtocol: chemical genetic growth profiling, strain panel (AID 1159580);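 further: tested at 20 µM; growth read once vehicle control cultures reached saturation at 30 °C; 1 = growth at the plate median or of vehicle wells; lower values mean less growth of the strain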
conditionParameters: S. cerevisiae deletion strains, growth OD, locus YKL085W, strain MDH1 (second series)
The campaign covered roughly 5,500 compounds. About 2,000 (36%) were called active. Another 18% or so got no clear call; they are omitted. Cut-off read from the data, not from the text of the source: active = normalized growth mostly below about 0.91 (no sharp cut-off); inconclusive = no clear call, values can overlap the other calls; inactive = mostly above about 0.92. The list shows a part of the results.
# valid calls are active, inactive; nothing else

Ask: Each compound tested received a call. Report the one for CC(C)/C(O)=C1/C(=O)O[C@@H](c2ccoc2)[C@]2(C)C(O)[C@@H](O)[C@@]34OC5(C)OC67CC(C)(C(O)[C@]6(O)[C@@H](O)[C@]3(O5)C12)[C@H](CC(=O)O)[C@]74C (some centres not stated) .
Reply: inactive

Ask: Each compound tested received a call. Report the one for Cc1cc(/C=C/c2ccc3cc(N(C)C)ccc3[n+]2C)c(C)n1-c1ccccc1 .
Reply: inactive

Ask: Each compound tested received a call. Report the one for CC(=O)O[C@@H]1CC2C(C)(C)[C@H](O)CC[C@]2(C)C2CC[C@@]3(C)[C@H](c4ccoc4)OC(=O)C4OC43[C@@]21C (some centres not stated) .
Reply: inactive

Ask: Each compound tested received a call. Report the one for CC(=O)O[C@@H]1CC2C(C)(C)C(=O)C3OC3[C@]2(C)C2CC[C@@]3(C)[C@H](c4ccoc4)OC(=O)C4OC43[C@@]21C (some centres not stated) .
Reply: active

Ask: Each compound tested received a call. Report the one for CC(=O)O[C@H]1C[C@@H](OC(C)=O)C(C)(C)C2C[C@@H](O)[C@]3(C)C(CC[C@@]4(C)[C@H](c5ccoc5)OC(=O)[C@H]5O[C@]543)[C@]21C (some centres not stated) .
Reply: inactive
